study system: Human immunodeficiency virus type 1 reverse transcriptase (Human immunodeficiency virus 1)
method description: Percent inhibition measured as the production of HIV reverse transcriptase (RT) in culture supernatant of monocytic U937 on at 7 days at a concentration 5 uM
Format: functional
reported endpoint: inhibition (%)
Report only the number, with the unit % understood.

Below: 3 compounds and their reported inhibition.
{"compound": "Cc1cn([C@H]2C[C@H](N=[N+]=[N-])[C@@H](COP(=O)(O)OCCO[C@H]3O[C@H](CO)[C@@H](O)[C@H](O)[C@@H]3O)O2)c(=O)[nH]c1=O", "inhibition / %": 20}
{"compound": "Cc1cn([C@H]2C[C@H](N=[N+]=[N-])[C@@H](COP(=O)(O)OC[C@H]3OC(O)[C@H](O)[C@@H](O)[C@@H]3O)O2)c(=O)[nH]c1=O (some centres undefined)", "inhibition / %": 43}
{"compound": "Cc1cn([C@H]2C[C@H](N=[N+]=[N-])[C@@H](COP(=O)(O)OC[C@H]3OC(O)[C@@H](O)[C@@H](O)[C@@H]3O)O2)c(=O)[nH]c1=O (some centres undefined)", "inhibition / %": 46}

Lab note: need inhibition with Human immunodeficiency virus type 1 reverse transcriptase (Human immunodeficiency virus 1) for entry Cc1cn([C@H]2C[C@H](N=[N+]=[N-])[C@@H](CO)O2)c(=O)[nH]c1=O , please look it up.
86

====

study system: Human immunodeficiency virus type 1 reverse transcriptase (Human immunodeficiency virus 1)
method description: Percent inhibition measured as the production of HIV reverse transcriptase (RT) in culture supernatant of monocytic U937 on at 11 days at a concentration 1 uM
Format: functional
reported endpoint: inhibition (%)
Report only the number, with the unit % understood.

Below: 2 compounds and their reported inhibition.
{"compound": "Cc1cn([C@H]2C[C@H](N=[N+]=[N-])[C@@H](COP(=O)(O)OCCO[C@H]3O[C@H](CO)[C@@H](O)[C@H](O)[C@@H]3O)O2)c(=O)[nH]c1=O", "study system": "Human immunodeficiency virus type 1 reverse transcriptase (Human immunodeficiency virus 1)", "test result": 0}
{"compound": "Cc1cn([C@H]2C[C@H](N=[N+]=[N-])[C@@H](CO)O2)c(=O)[nH]c1=O", "study system": "Human immunodeficiency virus type 1 reverse transcriptase (Human immunodeficiency virus 1)", "test result": 7}

What value of inhibition has been reported for the following compound? CCCCCCCCCCCCCCCCOP(=O)(OCCO[C@H]1O[C@H](CO)[C@@H](O)[C@H](O)[C@@H]1O)OCC1OC(n2cc(C)c(=O)[nH]c2=O)CC1N=[N+]=[N-] (some centres not stated)
0

What value of inhibition has been reported for the following compound? Cc1cn([C@H]2C[C@H](N=[N+]=[N-])[C@@H](COP(=O)(O)OC[C@H]3OC(O)[C@H](O)[C@@H](O)[C@@H]3O)O2)c(=O)[nH]c1=O (some centres not stated)
0

What value of inhibition has been reported for the following compound? CCCCCCCCCCCCCCCCOP(=O)(OC[C@H]1OC(O)[C@@H](O)[C@@H](O)[C@@H]1O)OC[C@H]1OC(n2cc(C)c(=O)[nH]c2=O)C[C@@H]1N=[N+]=[N-] (some centres not stated)
0

What value of inhibition has been reported for the following compound? Cc1cn([C@H]2C[C@H](N=[N+]=[N-])[C@@H](COP(=O)(O)OC[C@H]3OC(O)[C@@H](O)[C@@H](O)[C@@H]3O)O2)c(=O)[nH]c1=O (some centres not stated)
5

What value of inhibition has been reported for the following compound? CCCCCCCCCCCCCCCCOP(=O)(OC[C@H]1OC(O)[C@H](O)[C@@H](O)[C@@H]1O)OC[C@H]1OC(n2cc(C)c(=O)[nH]c2=O)C[C@@H]1N=[N+]=[N-] (some centres not stated)
53

# credit: ChEMBL document CHEMBL1125259
